- study-system: BRD4 long isoform (Homo sapiens, UniProt O60885)
- Construct: endogenous in cells; host or cells: MDA-MB-468
- test-name: BRD4 degradation assay (Western blot, MDA-MB-468 cells), long isoform
- Format: cell-based
- particulars: 24 h, 5 μM, MDA-MB-468, n = 2
measured-endpoint: % Mean Degradation of BRD4 (%)

compound: Cc1sc2c(c1C)C(c1ccc(Cl)cc1)=N[C@@H](CC(=O)NCCOCCC(=O)NCCOCc1c(COc3ccc(Cl)c4c3[C@@H](CN3CC5(CC5)CC3=O)N(C(=O)[C@@H]3CCCC[C@]3(C)C(=O)O)CC4)nnn1C)c1nnc(C)n1-2 [Example 5]
study-system: BRD4 long isoform (Homo sapiens, UniProt O60885)
% Mean Degradation of BRD4 [%]: 69

A. Cc1sc2c(c1C)C(c1ccc(Cl)cc1)=N[C@@H](CC(=O)NCC(=O)NCCNC(=O)[C@@]1(C)CCCC[C@H]1C(=O)N1CCc3c(Cl)ccc(OCc4nnn(C)c4C)c3[C@H]1CN1CC3(CC3)CC1=O)c1nnc(C)n1-2 [Comparative Example 1, reference compound]
B. Cc1sc2c(c1C)C(c1ccc(Cl)cc1)=N[C@@H](CC(=O)NCC(=O)NCCOCC(=O)N1CC[C@H](Oc3ccc(Cl)c4c3[C@@H](CN3CC5(CC5)CC3=O)N(C(=O)[C@@H]3CCCC[C@]3(C)C(=O)O)CC4)C1)c1nnc(C)n1-2 [Example 6]
C. Cc1sc2c(c1C)C(c1ccc(Cl)cc1)=N[C@@H](CC(=O)NCCOCCNC(=O)[C@@]1(C)CCCC[C@H]1C(=O)N1CCc3c(Cl)ccc(OCc4nnn(C)c4C)c3[C@H]1CN1CC3(CC3)CC1=O)c1nnc(C)n1-2 [Comparative Example 2, reference compound]
q: Order field: % Mean Degradation of BRD4 | Direction: descending (largest first) Please express your ranking as an ordered list of the labels.
a: B, C, A
(B: 95%, C: 14%, A: 5%)
